test system: Plasmodium falciparum; test: Calibr Malaria Delayed Death Assay SOP; assay type: functional, organism-based; parameters: scale not given: in the data most compounds retested in dose-response had high values; conditions: concentration 4.99e-06 (unit not given; other assays of the set use mol/L)
Among all 38,000 compounds or so, about 1,200 (3.2%) showed an effect of 50% or more. The median lay at about -58%. Many of the other results were omitted from the sample, so strong results are more common in it than they were.
Could you please mark true (1) for values of Percent Effect below -40% and false (0) for values at or above it?

Say whether its Percent Effect is strictly beneath -40%. Entry: `Cc1cccc(NC(=O)CN(C)C(=O)c2scnc2C)n1` false (0)

Then CCOc1cccc(CNC(=O)NCC(O)c2cccc(F)c2)c1 (stereo unspecified) ? false (0)

Then Cn1cc(C(=O)CC2CCCN2C(=O)c2c[nH]c3ccccc23)cn1 (stereo unspecified) ? false (0)

Then `CCCS(=O)(=O)N1CCN(C(C)(C)CO)CC1` ? true (1)

Then CCC(=O)NCC(=O)NC(C)c1ccc(OCCC(C)C)cc1 (stereo unspecified) ? false (0)

Then OC(CNC1CCOCC1)c1cccc(OCc2ccccc2)c1 (stereo unspecified) ? false (0)

Then COc1ccc(F)c(F)c1CN1CC(=O)N(c2ccccc2C)CC1C (stereo unspecified) ? false (0)

Then O=C(NCc1ccccc1)NCC(O)c1cccc(F)c1 (stereo unspecified) ? true (1)

Then COc1cccc(CN2CC(=O)N(c3ccccc3C)CC2C)c1OC (stereo unspecified) ? false (0)

Then `O=C(O)C(F)(F)F.O=C(O)C(F)(F)F.O=C(O)C(F)(F)F.O=C(c1ccncc1)N1CCN(Cc2cccnc2)c2ncccc2C1` ? true (1)

Then `O=C1COc2cc(C(=O)NS(=O)(=O)c3ccc(F)cc3)ccc2N1` ? false (0)

----------
test system: Plasmodium falciparum; experiment: Calibr Malaria Delayed Death Assay SOP; type: functional, organism-based; design: scale not given: in the data most compounds retested in dose-response had high values; conditions: concentration 4.99e-06 (unit not given; other assays of the set use mol/L)
Among all 38,000 compounds or so, about 1,200 (3.2%) showed an effect of 50% or more. The median lay at about -58%. This excerpt belongs to a sample that is enriched for strong results.
measure_name: Percent Effect (%)
Give the number; % is assumed, so skip it.

Could you tell me which Percent Effect is on file for Cc1ccc(F)c(S(=O)(=O)N2CCCC2c2ccncc2)c1 (centres undefined) ? -74.84

Then CCN1CCN(c2ccc(F)cc2C(C)NCc2nc(C)no2)CC1 (centres undefined) ? 4.183

Then Cc1ccc(CNC(C)c2nnc3n2CCCC3)o1 (centres undefined) ? -20.3

Then `COc1ccc(CCN)cc1-c1ccc(S(C)(=O)=O)cc1` ? 18.27

Then Cc1ccc(C)c(S(=O)(=O)N2CCN(C)C3(CCC(=O)N(C)CC3)C2)c1 (centres undefined) ? -116.8

Then `Cc1nc(CNC(=O)Nc2cc(F)ccc2OC(F)F)no1` ? -136.5

Then `COc1ccc(-c2ccccc2CCN)c(OC)c1` ? 80.76

Then `CCC[C@H]1CN(S(=O)(=O)c2cc(C)ccc2C)C[C@@H]1N` ? 67.41

Then O=C(O)C(F)(F)F.O=C(c1ccoc1)N1CCOCC2(CCN(C3CCOCC3)C2)C1 (centres undefined) ? -39.42

Then `Cc1cccc(C(=O)N(C)C2CCN(c3ccccn3)CC2)c1C` ? -82.1

Then `CN(C)c1ccc(C(=O)N2CCN(Cc3cscn3)CC2)cc1F` ? -147.3

Then `CC(=O)Nc1cccc(-c2ccccc2CCN)c1` ? -111.2

Then `Fc1cccc(Cl)c1CNCCCOc1ccccn1` ? 9.624

Then `CN1CCC(N2CCC(C(=O)N(C)C)CC2)CC1.O=C(O)C(F)(F)F.O=C(O)C(F)(F)F` ? -35.37

Then `N#Cc1ccc(F)c(CNc2ccc(F)cc2OCCO)c1` ? -1.485

Then `Cc1cc(CN2CCN(Cc3cc(C#N)ccc3F)CC2)no1` ? -43.24

Then `Cc1ccc(C(=O)Nc2nnc(C3CC3)s2)c(-n2cnnn2)c1C` ? -130.7

Then `CN1CCN(c2ccc(F)cc2C(N)=O)CC1` ? -109.6

Then `CN1CCN(c2ccccc2NC(=O)NCCc2ccc(O)cc2)CC1` ? -22.54

Then CCS(=O)(=O)NC1CCCN(c2cc(C)ccc2F)C1=O (centres undefined) ? 0.205

Then CN1CCN(c2ccccc2NC(=O)NCC[S+](C)[O-])CC1 (centres undefined) ? -127.8

Then CCOc1ncccc1C(=O)N1CCCC1Cn1cc(C)cn1 (centres undefined) ? -83.81

Then CCc1ccc(S(=O)(=O)N2CCCC(c3ncc[nH]3)C2)s1 (centres undefined) ? 13.27

Then `Cc1ccnc(NC(=O)c2cccc(OCc3nnnn3C)c2)c1` ? -241.7
